Test system Escherichia coli, MIC listed for each of the compounds.

Task: Record request: MIC value, item `CC[C@H](C)[C@H](N)C(=O)N[C@@H](CC(N)=O)C(=O)N[C@@H](CO)C(=O)N[C@@H](CC(C)C)C(=O)N[C@@H](CCCCN)C(=O)N[C@@H](CC(C)C)C(=O)NCC(=O)N[C@@H](CCCCN)C(=O)N[C@@H](CCCCN)C(=O)N[C@H](C(=O)N[C@@H](CC(C)C)C(=O)NCC(=O)N[C@@H](C)C(=O)N[C@@H](CC(C)C)C(N)=O)[C@@H](C)CC`
Result: > 100 µM

Task: Record request: MIC value, item `CC[C@H](C)[C@H](NC(=O)[C@H](CC(C)C)NC(=O)[C@H](CC(=O)O)NC(=O)CNC(=O)[C@@H](NC(=O)CN)C(C)C)C(=O)N[C@@H](CCCN=C(N)N)C(=O)N[C@@H](CCCCN)C(=O)N[C@@H](C)C(=O)N[C@H](C(=O)N[C@@H](CO)C(=O)N[C@H](C(=O)N[C@H](C(=O)N[C@@H](CCCCN)C(=O)N[C@@H](CC(N)=O)C(=O)N[C@H](C(=O)N[C@H](C(N)=O)C(C)C)[C@@H](C)CC)[C@@H](C)CC)C(C)C)C(C)C`
Result: > 56.1 µM

Task: Record request: MIC value, item `CC(C)C[C@H](NC(=O)[C@H](C)NC(=O)CNC(=O)[C@H](CC(C)C)NC(=O)[C@@H](N)Cc1ccccc1)C(=O)N[C@@H](Cc1ccccc1)C(=O)N[C@@H](CCCCN)C(=O)N[C@H](C(=O)N[C@@H](Cc1c[nH]c2ccccc12)C(=O)N[C@@H](CO)C(=O)N[C@@H](CCCCN)C(=O)O)C(C)C`
Result: > 154 µM
